Where do the numbers come from? From paper PMC11527646.

biological target: UniProtKB P28223; experiment: GPCR selectivity cellular assay; type: cell-based; settings: Antagonism; read-out: Antagonist Activity (IC50)
reported_property: IC50

Task: Requested read-out: IC50. Entry: C[C@@H](C(=O)Nc1cnc(Oc2ccc(F)cc2F)cn1)N1CCC(F)(F)[C@@H](c2cc[n+]([O-])cc2)C1 [Compound B]
Result: > 100 µM

----------
biological target: D2 receptor (DRD2) (Homo sapiens); experiment: GPCR selectivity cellular assay; conditions: Antagonism; read-out: Antagonist Activity (IC50)
Sequence (P14416 whole entry): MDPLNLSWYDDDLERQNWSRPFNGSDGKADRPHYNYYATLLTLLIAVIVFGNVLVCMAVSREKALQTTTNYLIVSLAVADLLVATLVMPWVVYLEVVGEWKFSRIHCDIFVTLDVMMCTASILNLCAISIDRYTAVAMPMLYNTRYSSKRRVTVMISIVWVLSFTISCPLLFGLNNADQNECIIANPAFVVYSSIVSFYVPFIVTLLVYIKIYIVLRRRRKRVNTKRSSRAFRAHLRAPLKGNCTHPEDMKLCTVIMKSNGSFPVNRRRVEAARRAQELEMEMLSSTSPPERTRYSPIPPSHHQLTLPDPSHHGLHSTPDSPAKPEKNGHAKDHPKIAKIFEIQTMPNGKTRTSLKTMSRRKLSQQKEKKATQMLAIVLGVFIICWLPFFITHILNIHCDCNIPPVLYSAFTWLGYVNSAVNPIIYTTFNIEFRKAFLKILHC
reported_property: IC50

Task: Requested read-out: IC50. Entry: C[C@@H](C(=O)Nc1cnc(Oc2ccc(F)cc2F)cn1)N1CCC(F)(F)[C@@H](c2cc[n+]([O-])cc2)C1 [Compound B]
Result: > 100 µM

----------
target: H3 receptor (HRH3) (Homo sapiens, UniProt Q9Y5N1); experiment: GPCR selectivity cellular assay; conditions: Antagonism; read-out: Antagonist Activity (IC50)
Sequence (Q9Y5N1 whole entry): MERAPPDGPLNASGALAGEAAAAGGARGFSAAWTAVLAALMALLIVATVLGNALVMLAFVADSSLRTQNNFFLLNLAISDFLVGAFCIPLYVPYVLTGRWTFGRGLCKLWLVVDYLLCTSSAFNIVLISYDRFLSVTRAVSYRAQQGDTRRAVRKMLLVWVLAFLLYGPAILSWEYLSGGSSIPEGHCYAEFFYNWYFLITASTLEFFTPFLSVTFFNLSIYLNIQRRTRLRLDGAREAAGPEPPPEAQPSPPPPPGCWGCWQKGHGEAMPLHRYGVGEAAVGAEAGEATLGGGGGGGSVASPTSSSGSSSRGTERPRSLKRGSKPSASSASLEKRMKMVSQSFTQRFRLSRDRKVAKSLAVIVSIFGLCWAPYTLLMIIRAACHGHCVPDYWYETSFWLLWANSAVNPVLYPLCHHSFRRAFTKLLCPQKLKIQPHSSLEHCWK
reported_property: IC50

Task: Requested read-out: IC50. Entry: C[C@@H](C(=O)Nc1cnc(Oc2ccc(F)cc2F)cn1)N1CCC(F)(F)[C@@H](c2cc[n+]([O-])cc2)C1
Result: > 50 µM

----------
molecular target: MRGPRX2 (Homo sapiens, UniProt Q96LB1); experiment: LAD2 mast cell degranulation (β-hexosaminidase release), MRGPRX2 ligand-mediated; format: cell-based; design: human mast cells expressing endogenous MRGPRX2; endogenous in cells; […]; settings: Mast Cell Activator: Cortistatin-14 at approx. EC80; mean ± SEM; read-out: Inhibition of Ligand Mediated LAD-2 Cell Activation and Degranulation IC50
reported_property: pIC50
Please keep in mind that pIC50 is minus log10 of the molar concentration; only the number is needed.

Task: Requested read-out: pIC50. Entry: C[C@@H](C(=O)Nc1cnc(Oc2ccc(F)cc2F)cn1)N1CCC(F)(F)[C@@H](c2cc[n+]([O-])cc2)C1 [Compound B]
Result: 9.00

----------
molecular target: MRGPRX2 (Homo sapiens); experiment: Calcium mobilization (FLIPR TETRA) in BacMam-transduced U2OS cells; format: cell-based; parameters: expressed in transfected cells; host or cells: U2OS transduced with BacMam virus; conditions: Cortistatin 14 at approx. EC80; U2OS cells; read-out: Antagonist IC50 against Cortistatin 14
reported_property: IC50 (nM)
Kindly provide the numeric value in nM only, without the unit symbol.

Task: Requested read-out: IC50. Entry: C[C@@H](C(=O)Nc1cnc(Oc2ccc(F)cc2F)cn1)N1CCC(F)(F)[C@@H](c2cc[n+]([O-])cc2)C1
Result: 3.6

----------
biological target: k-Receptor (OPRK1) (Homo sapiens, UniProt P41145); test: GPCR selectivity cellular assay; format: cell-based; conditions: Agonism; read-out: Agonist Activity (EC50)
Sequence (P41145 whole entry): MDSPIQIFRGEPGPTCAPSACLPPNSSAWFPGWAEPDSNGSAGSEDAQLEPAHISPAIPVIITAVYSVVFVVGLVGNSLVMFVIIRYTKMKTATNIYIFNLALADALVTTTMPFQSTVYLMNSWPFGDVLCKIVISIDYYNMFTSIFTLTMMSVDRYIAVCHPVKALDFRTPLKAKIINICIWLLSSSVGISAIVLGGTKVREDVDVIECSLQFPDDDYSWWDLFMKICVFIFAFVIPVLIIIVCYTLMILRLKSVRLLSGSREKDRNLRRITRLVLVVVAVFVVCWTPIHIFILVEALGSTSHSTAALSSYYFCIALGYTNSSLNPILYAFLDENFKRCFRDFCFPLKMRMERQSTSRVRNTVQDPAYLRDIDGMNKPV
pEC50: −log10 of the molar value.
reported_property: pEC50

Task: Requested read-out: pEC50. Entry: C[C@@H](C(=O)Nc1cnc(Oc2ccc(F)cc2F)cn1)N1CCC(F)(F)[C@@H](c2cc[n+]([O-])cc2)C1 [Compound B]
Result: < 4.00

----------
molecular target: 5-HT2C receptor (HTR2C) (Homo sapiens); assay: GPCR selectivity cellular assay; assay type: cell-based; conditions: Antagonism; read-out: Antagonist Activity (IC50)
pIC50: −log10 of the molar value.
reported_property: pIC50

{"smiles_str": "C[C@@H](C(=O)Nc1cnc(Oc2ccc(F)cc2F)cn1)N1CCC(F)(F)[C@@H](c2cc[n+]([O-])cc2)C1", "assay_target": "5-HT2C receptor (HTR2C) (Homo sapiens)", "pIC50": "< 4.30"}

Could you now look at the following compound, please?
Task: Requested read-out: pIC50. Entry: CC1(C)C(C(=O)Nc2ccccn2)C1(C)C
Result: < 4.00

----------
molecular target: ß2-Adrenoreceptor (ADRB2) (Homo sapiens, UniProt P07550); assay: GPCR selectivity cellular assay; conditions: Agonism; read-out: Agonist Activity (EC50)
Sequence (P07550 whole entry): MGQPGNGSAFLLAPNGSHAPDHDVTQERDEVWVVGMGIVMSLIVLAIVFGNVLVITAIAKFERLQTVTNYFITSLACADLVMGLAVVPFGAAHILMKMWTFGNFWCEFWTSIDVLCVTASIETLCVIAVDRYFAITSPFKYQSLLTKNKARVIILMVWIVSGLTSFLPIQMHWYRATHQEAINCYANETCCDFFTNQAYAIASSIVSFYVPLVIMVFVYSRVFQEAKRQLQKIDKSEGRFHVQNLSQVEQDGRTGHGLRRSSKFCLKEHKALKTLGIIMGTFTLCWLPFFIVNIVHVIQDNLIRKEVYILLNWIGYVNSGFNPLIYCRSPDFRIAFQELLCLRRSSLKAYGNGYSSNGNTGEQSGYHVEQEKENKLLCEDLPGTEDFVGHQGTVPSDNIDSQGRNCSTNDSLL
pEC50: −log10 of the molar value.
reported_property: pEC50

Task: Requested read-out: pEC50. Entry: C[C@@H](C(=O)Nc1cnc(Oc2ccc(F)cc2F)cn1)N1CCC(F)(F)[C@@H](c2cc[n+]([O-])cc2)C1
Result: < 4.00

----------
target: 5-HT2A receptor (HTR2A) (Homo sapiens, UniProt P28223); experiment: GPCR selectivity cellular assay; assay type: cell-based
Sequence (P28223 whole entry): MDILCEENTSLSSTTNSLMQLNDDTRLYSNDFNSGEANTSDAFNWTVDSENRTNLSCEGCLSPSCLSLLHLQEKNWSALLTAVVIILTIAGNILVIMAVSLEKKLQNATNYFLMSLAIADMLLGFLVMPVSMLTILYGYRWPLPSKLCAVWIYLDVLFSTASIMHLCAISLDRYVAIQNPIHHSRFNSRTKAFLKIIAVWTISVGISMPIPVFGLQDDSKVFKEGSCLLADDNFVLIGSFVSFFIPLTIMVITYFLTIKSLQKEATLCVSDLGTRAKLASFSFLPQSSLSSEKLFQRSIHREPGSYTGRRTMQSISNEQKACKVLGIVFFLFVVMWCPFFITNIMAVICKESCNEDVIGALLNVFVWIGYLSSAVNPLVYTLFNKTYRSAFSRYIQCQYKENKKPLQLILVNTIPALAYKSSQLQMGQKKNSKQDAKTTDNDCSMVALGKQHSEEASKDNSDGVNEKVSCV
reported_property: IC50 (µM)
Kindly provide the numeric value in µM only, without the unit symbol.

Task: Requested read-out: IC50. Entry: CC1(C)C(C(=O)Nc2ccccn2)C1(C)C [Compound A]
Result: 41.4

----------
target: CB1 receptor (CNR1) (Homo sapiens, UniProt P21554); construct: expressed in transfected cells; assay: GPCR selectivity cellular assay; assay type: cell-based
Sequence (P21554 whole entry): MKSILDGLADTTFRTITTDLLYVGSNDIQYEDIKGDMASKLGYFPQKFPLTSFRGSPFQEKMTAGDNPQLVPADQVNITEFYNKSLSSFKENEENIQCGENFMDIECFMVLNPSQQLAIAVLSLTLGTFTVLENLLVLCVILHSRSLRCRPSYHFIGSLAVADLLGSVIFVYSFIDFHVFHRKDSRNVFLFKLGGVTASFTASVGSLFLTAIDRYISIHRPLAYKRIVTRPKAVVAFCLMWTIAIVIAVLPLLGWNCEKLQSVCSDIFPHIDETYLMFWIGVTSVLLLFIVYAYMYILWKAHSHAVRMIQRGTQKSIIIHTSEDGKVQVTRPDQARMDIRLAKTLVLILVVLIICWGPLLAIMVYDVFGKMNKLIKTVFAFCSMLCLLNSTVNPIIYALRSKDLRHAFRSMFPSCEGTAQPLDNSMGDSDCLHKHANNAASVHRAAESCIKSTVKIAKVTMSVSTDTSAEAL
pEC50: −log10 of the molar value.
reported_property: pEC50

Task: Requested read-out: pEC50. Entry: CC1(C)C(C(=O)Nc2ccccn2)C1(C)C [Compound A]
Result: < 4.60

----------
Each entry below carries its reported EC50.
Target: UniProt:Q96LB1
Sequence (Q96LB1 1-330): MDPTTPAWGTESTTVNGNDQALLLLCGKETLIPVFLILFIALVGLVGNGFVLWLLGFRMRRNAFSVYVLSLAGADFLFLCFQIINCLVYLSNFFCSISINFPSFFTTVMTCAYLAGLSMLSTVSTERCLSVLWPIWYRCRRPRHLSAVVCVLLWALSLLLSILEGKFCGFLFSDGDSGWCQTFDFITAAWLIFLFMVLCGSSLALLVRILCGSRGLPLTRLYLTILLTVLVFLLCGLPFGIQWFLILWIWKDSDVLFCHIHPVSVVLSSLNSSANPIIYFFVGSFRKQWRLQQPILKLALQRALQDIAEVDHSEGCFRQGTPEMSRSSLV
Experiment: LAD2 mast cell degranulation (β-hexosaminidase release), MRGPRX2 ligand-mediated
Format: cell-based
Design: human mast cells expressing endogenous MRGPRX2; endogenous in cells; […]
Settings: agonist mode, no mast cell activator; up to 50 μM tested; read-out: Activation of LAD-2 Cells EC50

{"smiles_str": "CC1(C)C(C(=O)Nc2ccccn2)C1(C)C", "EC50": "> 50 µM"}

Task: Request: EC50, test system UniProt:Q96LB1, entry C[C@@H](C(=O)Nc1cnc(Oc2ccc(F)cc2F)cn1)N1CCC(F)(F)[C@@H](c2cc[n+]([O-])cc2)C1
Result: > 50 µM

----------
Each entry below carries its reported EC50.
biological target: 5-HT2C receptor (HTR2C) (Homo sapiens, UniProt P28335); assay: GPCR selectivity cellular assay; conditions: Agonism; read-out: Agonist Activity (EC50)
Sequence (P28335 33-458): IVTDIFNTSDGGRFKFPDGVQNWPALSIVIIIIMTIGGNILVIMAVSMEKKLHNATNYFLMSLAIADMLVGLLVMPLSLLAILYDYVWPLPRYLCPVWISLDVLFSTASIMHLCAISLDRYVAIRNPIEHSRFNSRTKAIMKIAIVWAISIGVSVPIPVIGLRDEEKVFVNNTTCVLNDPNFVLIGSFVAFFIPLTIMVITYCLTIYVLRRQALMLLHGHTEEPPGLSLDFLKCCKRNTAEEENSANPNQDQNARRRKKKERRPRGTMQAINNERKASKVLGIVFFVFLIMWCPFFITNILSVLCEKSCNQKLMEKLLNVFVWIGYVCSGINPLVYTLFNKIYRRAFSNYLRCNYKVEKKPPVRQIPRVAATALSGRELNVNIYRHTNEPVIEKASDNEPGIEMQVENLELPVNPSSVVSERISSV

{"smiles_str": "CC1(C)C(C(=O)Nc2ccccn2)C1(C)C", "assay_target": "5-HT2C receptor (HTR2C) (Homo sapiens, UniProt P28335)", "reported_property": "EC50", "reported_value": "> 100 µM"}

Could you now look at the following compound, please?
Task: Requested read-out: EC50. Entry: C[C@@H](C(=O)Nc1cnc(Oc2ccc(F)cc2F)cn1)N1CCC(F)(F)[C@@H](c2cc[n+]([O-])cc2)C1
Result: > 100 µM

----------
Target: MRGPRX2 (Homo sapiens)
Assay: LAD2 mast cell degranulation (β-hexosaminidase release), MRGPRX2 ligand-mediated
Format: cell-based
Design: human mast cells expressing endogenous MRGPRX2; endogenous in cells; […]
Settings: Mast Cell Activator: PAMP-12 at approx. EC80; mean ± SEM; read-out: Inhibition of Ligand Mediated LAD-2 Cell Activation and Degranulation IC50
Procedure: Two different in vitro human mast cell systems were studied: (a) a human mast cell line, LAD2, established from a patient with mast cell sarcoma; and (b) mast cells freshly isolated from human skin. MRGPRX2 antagonist IC50 values were determined in the LAD2 mast cell degranulation assay using approximately EC80 concentrations for five different MRGPRX2 activating ligands (see Supplementary Figure 1 ).
reported_property: IC50 (nM)
Kindly provide the numeric value in nM only, without the unit symbol.

Task: Requested read-out: IC50. Entry: C[C@@H](C(=O)Nc1cnc(Oc2ccc(F)cc2F)cn1)N1CCC(F)(F)[C@@H](c2cc[n+]([O-])cc2)C1 [Compound B]
Result: 2.6

----------
biological target: 5-HT2B receptor (HTR2B) (Homo sapiens); assay: GPCR selectivity cellular assay; conditions: Agonism; read-out: Agonist Activity (EC50)
Sequence (P41595 whole entry): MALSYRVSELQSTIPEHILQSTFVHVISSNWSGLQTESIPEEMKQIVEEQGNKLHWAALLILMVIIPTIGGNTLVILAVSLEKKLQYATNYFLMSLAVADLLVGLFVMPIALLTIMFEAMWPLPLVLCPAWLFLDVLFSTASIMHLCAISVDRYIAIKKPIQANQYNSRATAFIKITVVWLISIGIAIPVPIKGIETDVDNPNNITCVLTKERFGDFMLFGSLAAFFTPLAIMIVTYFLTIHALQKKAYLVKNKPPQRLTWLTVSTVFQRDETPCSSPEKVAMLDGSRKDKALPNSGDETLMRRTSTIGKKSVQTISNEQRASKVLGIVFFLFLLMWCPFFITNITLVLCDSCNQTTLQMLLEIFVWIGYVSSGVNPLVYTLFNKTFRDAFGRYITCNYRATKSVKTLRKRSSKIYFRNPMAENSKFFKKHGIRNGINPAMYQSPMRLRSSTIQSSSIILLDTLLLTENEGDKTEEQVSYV
reported_property: pEC50
Please keep in mind that pEC50 is minus log10 of the molar concentration; only the number is needed.

Task: Request: pEC50, test system 5-HT2B receptor (HTR2B) (Homo sapiens), entry CC1(C)C(C(=O)Nc2ccccn2)C1(C)C
Result: 4.57

----------
molecular target: MRGPRX1 (Homo sapiens, UniProt Q96LB2); assay: GPCR selectivity cellular assay; conditions: Agonism; read-out: Agonist Activity (EC50)
Sequence (Q96LB2 whole entry): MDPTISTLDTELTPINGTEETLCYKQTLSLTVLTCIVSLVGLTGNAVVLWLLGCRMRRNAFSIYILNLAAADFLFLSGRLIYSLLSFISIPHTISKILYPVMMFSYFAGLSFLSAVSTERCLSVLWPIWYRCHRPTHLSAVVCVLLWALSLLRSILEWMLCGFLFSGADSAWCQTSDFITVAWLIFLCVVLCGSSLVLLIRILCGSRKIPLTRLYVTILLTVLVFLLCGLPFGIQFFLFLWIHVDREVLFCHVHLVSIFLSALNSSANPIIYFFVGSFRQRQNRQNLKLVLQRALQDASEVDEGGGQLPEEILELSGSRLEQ
pEC50: −log10 of the molar value.
reported_property: pEC50

Task: Request: pEC50, test system MRGPRX1 (Homo sapiens, UniProt Q96LB2), entry CC1(C)C(C(=O)Nc2ccccn2)C1(C)C
Result: < 4.00

Task: Thanks! And C[C@@H](C(=O)Nc1cnc(Oc2ccc(F)cc2F)cn1)N1CCC(F)(F)[C@@H](c2cc[n+]([O-])cc2)C1 ?
Result: < 4.00
